# Protocol text: ATG_EGR_CIS: Attagene CIS-FACTORIAL HepG2 Assay for human Early Growth Response 1 (EGR1) (AID 2282938)
# Cond: HepG2 Attagene CIS-FACTORIAL EGR reporter mRNA; actives raise or lower the signal
Calls of active or inactive are those of the source. The calls were made as follows: active = hit-call score of the fitted dose curve at least 0.9, where 1 is the maximum; inactive = score below 0.9.
Labels: label 1 (active), label 0 (inactive)

Compound | Class assignment
Cc1ccc(-c2ccccc2)cc1 | label 0
CCCCCC(C=O)=Cc1ccccc1 | label 0
C[C@H]1O[C@@H](O[C@H]2[C@@H](O)C[C@H](O[C@H]3[C@@H](O)C[C@H](O[C@H]4CC[C@@]5(C)[C@H](CC[C@@H]6[C@@H]5C[C@@H](O)[C@]5(C)[C@@H](C7=CC(=O)OC7)CC[C@]65O)C4)O[C@@H]3C)O[C@@H]2C)C[C@H](O)[C@@H]1O | label 1
C[C@H]1C[C@@H](O)CC(C)(C)C1 | label 0
C=C(C)C(=O)OCCOCCOCCOCCOC(=O)C(=C)C | label 0
CC(=O)CC(=O)Nc1ccccc1 | label 0
C#CC(C)N(C)C(=O)Nc1ccc(Cl)cc1 (stereo not given) | label 0
CCOc1ccc(N=Nc2ccc(C=Cc3ccc(N=Nc4ccc(OCC)cc4)cc3S(=O)(=O)O)c(S(=O)(=O)O)c2)cc1 | label 0
C=C[Si]1(C)O[Si](C)(C=C)O[Si](C)(C=C)O[Si](C)(C=C)O1 (stereo not given) | label 0
OCCOCCN1CCN(C2=Nc3ccccc3Sc3ccccc32)CC1 | label 0
O=C(O)CCCCCCCCC(=O)O | label 0
CCCCCCC(C)(C)S | label 0
Cc1cc(C)nc(NS(=O)(=O)c2ccc(N)cc2)n1 | label 0
OCC(O)c1ccccc1 (stereo not given) | label 0
COC(CC(C)CCCC(C)(C)O)OC (stereo not given) | label 0
COC(=O)c1ccc([N+](=O)[O-])cc1 | label 0
O=C1OC(=O)c2c(Cl)c(Cl)c(Cl)c(Cl)c21 | label 0
CN(C)c1cccc(O)c1 | label 0
CN(C)C(=S)SC(=S)N(C)C | label 0
c1ccc2[nH]cnc2c1 | label 0
CCC(Cl)C(Cl)C(Cl)CC(Cl)C(Cl)C(C)Cl (stereo not given) | label 0
Nc1ccccc1[N+](=O)[O-] | label 0
[Cl][Au]([Cl])[Cl] | label 0
CC(C)C[C@H](NC(=O)OCC1c2ccccc2-c2ccccc21)C(=O)O | label 0
COc1ccc(N=Nc2cc(C)c(N=Nc3ccc(S(=O)(=O)O)cc3)cc2OC)cc1 | label 0
